Reference source for all entries: PubChem BioAssay

Target: Homeobox protein Hox-A13 (Mus musculus)
Assay: inhibitors of HoxA13-DNA binding, primary screen, biochemical, fluorescence polarization, labeled oligonucleotide (AID 1185)
Details: 15 min, higher = more signal, called active from +8 up or from −8 down
Here the recorded z-score is given for each entry.
Reply: number alone, nothing else.

| COMPOUND | RECORDED METRIC | OBSERVED MEASUREMENT |
| --- | --- | --- |
| CC(C)N1CC=CC23O[C@@H]4C=CCOC(=O)[C@@H]4[C@H]2C(=O)N(CCCO)[C@@H]3C1=O (stereo partly specified) | z-score | -3.62 |

--- query ---
Param item: C=CCOC(=O)[C@H]1[C@@H]2C(=O)O[C@@H](c3ccccc3)[C@@H](c3ccccc3)N2[C@@H](c2ccc(OCCOC(=O)[C@@H]3C[C@@H]4C(=O)N[C@@H](CCCCNC(C)=O)C(=O)N4[C@@H]3c3ccc(O)cc3)cc2)[C@]12C(=O)Nc1ccc(I)cc12 ; param system: Homeobox protein Hox-A13 (Mus musculus); output z-score: -0.356
